- method-notes: Total brain antiepileptic drug concentrations (fluorescence polarization immunoassay)
- run-parameters: AED + vehicle, i.p.: CBZ 4.3, PB 13.0, PHT 5.4, VPA 245.3 mg kg^−1 (control of MOD); mean ± S.E.M., n = 8
Brain concentration of the AED for assorted compounds

{"compound": "CCC1(c2ccccc2)C(=O)NC(=O)NC1=O [PB, phenobarbital]", "Brain concentration of the AED": "23.56 ± 1.10 μg g^−1 of wet brain tissue"}
{"compound": "O=C1NC(=O)C(c2ccccc2)(c2ccccc2)N1 [PHT, phenytoin]", "Brain concentration of the AED": "1.39 ± 0.20 μg g^−1 of wet brain tissue"}

Next compound, Brain concentration of the AED to be filled in.
Per the record, NC(=O)N1c2ccccc2C=Cc2ccccc21 [CBZ, carbamazepine] has Brain concentration of the AED of 2.41 ± 0.48 μg g^−1 of wet brain tissue

---

Brain concentration of the AED for assorted compounds
- method-notes: Total brain antiepileptic drug concentrations (fluorescence polarization immunoassay)
- run-parameters: AED + vehicle, i.p.: CBZ 6.4, PB 14.4, PHT 6.3, VPA 241.6 mg kg^−1 (control of ACID); mean ± S.E.M., n = 8

Per the record, O=C1NC(=O)C(c2ccccc2)(c2ccccc2)N1 has Brain concentration of the AED of 1.70 ± 0.15 μg g^−1 of wet brain tissue

Per the record, CCC1(c2ccccc2)C(=O)NC(=O)NC1=O has Brain concentration of the AED of 25.46 ± 0.84 μg g^−1 of wet brain tissue

Per the record, NC(=O)N1c2ccccc2C=Cc2ccccc21 [CBZ, carbamazepine] has Brain concentration of the AED of 4.46 ± 0.31 μg g^−1 of wet brain tissue

---

Brain concentration of the AED for assorted molecules
- method-notes: Total brain antiepileptic drug concentrations (fluorescence polarization immunoassay)
- run-parameters: AED + vehicle, i.p.: CBZ 5.7, PB 14.0, PHT 6.0, VPA 226.4 mg kg^−1 (control of SULF); mean ± S.E.M., n = 8

// worked examples, Brain concentration of the AED included
{"molecule": "O=C1NC(=O)C(c2ccccc2)(c2ccccc2)N1", "Brain concentration of the AED": "1.65 ± 0.19 μg g^−1 of wet brain tissue"}
{"molecule": "NC(=O)N1c2ccccc2C=Cc2ccccc21 [CBZ, carbamazepine]", "Brain concentration of the AED": "3.76 ± 0.35 μg g^−1 of wet brain tissue"}

Next molecule, Brain concentration of the AED to be filled in.
Per the record, CCC1(c2ccccc2)C(=O)NC(=O)NC1=O has Brain concentration of the AED of 23.71 ± 0.86 μg g^−1 of wet brain tissue

---

- method-notes: Total brain antiepileptic drug concentrations (fluorescence polarization immunoassay)
- run-parameters: AED + vehicle, i.p.: CBZ 11.2, PB 15.4, PHT 7.0, VPA 211.4 mg kg^−1 (control of GBR); mean ± S.E.M., n = 8
Brain concentration of the AED for assorted compounds

{"compound": "NC(=O)N1c2ccccc2C=Cc2ccccc21 [CBZ, carbamazepine]", "result": "6.66 ± 0.42 μg g^−1 of wet brain tissue"}
{"compound": "O=C1NC(=O)C(c2ccccc2)(c2ccccc2)N1 [PHT, phenytoin]", "result": "3.22 ± 0.30 μg g^−1 of wet brain tissue"}

Next compound, Brain concentration of the AED to be filled in.
Per the record, CCC1(c2ccccc2)C(=O)NC(=O)NC1=O [PB, phenobarbital] has Brain concentration of the AED of 24.18 ± 0.70 μg g^−1 of wet brain tissue
